- Tested on: KLPN 8852
- ASSAY_EXPLANATION: MIC of antibiotics alone against KLPN 8852 (Table 1)
- Format: cell-based, Klebsiella pneumonia
- CONDITION: MIC dil in Full strength MHB, antibiotic alone
- Procedure: KLPN 8852, 27025 and 24076 are carbapenemase resistant (“CRE”) strains of the common bacteria, KLPN, Klebsiella pneumonia. […] The ability of amikacin as well as three carbapenem antibiotics (meropenem, imipenem, and doripenem) to kill each of these strains was tested using minimum inhibitory concentration, or MIC, as a measure of effectiveness.
QUANTITY_NAME: MIC

- STRUCTURE_SMILES_STRING: "C[C@@H](O)[C@H]1C(=O)N2C(C(=O)O)=C(S[C@@H]3CN[C@H](CNS(N)(=O)=O)C3)[C@H](C)[C@H]12"
  MIC: "> 50 µg/mL"
- STRUCTURE_SMILES_STRING: "C[C@@H](O)[C@H]1C(=O)N2C(C(=O)O)=C(SCCN=CN)C[C@H]12"
  MIC: "> 50 µg/mL"
- STRUCTURE_SMILES_STRING: "NCC[C@H](O)C(=O)N[C@@H]1C[C@H](N)[C@@H](O[C@H]2O[C@H](CN)[C@@H](O)[C@H](O)[C@H]2O)[C@H](O)[C@H]1O[C@H]1O[C@H](CO)[C@@H](O)[C@H](N)[C@H]1O"
  MIC: "6.25 µg/mL"

Moving on to the next compound.
Prompt: Observed MIC on KLPN 8852 for C[C@@H](O)[C@H]1C(=O)N2C(C(=O)O)=C(S[C@@H]3CN[C@H](C(=O)N(C)C)C3)[C@H](C)[C@H]12 , please.
Completion: > 50 µg/mL
